Test system: E. coli cells expressing an HPPD polypeptide
Test: Brown color bioassay in liquid culture, residual brown color formation (BCF), OD440 after 96 hours
Assay type: cell-based
Conditions: brown color formation with Cmpd. 1 (1000 μM) relative to without, after 96 hours
Listing of entries alongside the reported Residual BCF OD440nm [%].
Parameter: Residual BCF OD440nm [%]

• 107 (protein, mutant HPPD polypeptide) MADLYENPMGLMGFEFIEFASPTPGTLEPIFEIMGFTKVATHRSKNVHLYRQGEINLILNNEPNSIASYFAAEHGPSVCGMAFRVKDSQKAYNRALELGAQPIHIDTGPMELNLPAIKGIGGAPLYLIDRFGEGSSIYDIDFVYLEGVERNPVGAGLKVIDHLTHNVYRGRMVYWANFYEKLFNFREARYFDIKGEYTGLTSKAMSAPDGMIKIPLNEESSKGAGQIEEFLMQFNGEGIQHVAFLTDDLVKTWDALKKIGMRFMTAPGDEYYEMLEGRLPDHGEPVDQLQARGILLDGSSVEGDKRLLLQIFSETLMGPVFFEFIQRKGDDGFGPHSVKRLFESVERDQVRRGVLTAD = 84%
• 52 (protein, mutant HPPD polypeptide) MADLYENPMGLMGFEFIEFASPTPGTLEPIFEIMGFTKVATHRSKNVHLYRQGEINLILNNEPNSIASYFAAEHGPSVCGMAFRVKDSQKAYNRALELGAQPIHIDTGPMELNLPAIKGIGGAPLYLIDRFGEGSSIYDIDFVYLEGVERNPVGAGLKVIDHLTHNVYRGRMVYWANFYEKLFNFREARYFDIKGEYTGLTSKAMSAPDGMIRIPLNEESSKGAGQIEEFLMQFNGEGIQHVAFLTDDLVKTWDALKKIGMRFMTAPGDEYYEMLEGRLPDHGEPVDQLQARGILLDGSSVEGDKRLLLQIFSETLMGPVFFEFIQRKGDSGFGPDSFKVLFESVERDQVRRGVLTAD = 65%
